The measurements presented in this section are drawn from ChEMBL document CHEMBL6074681.

target: Solute carrier family 26 member 6 (Homo sapiens, UniProt Q9BXS9); experiment: Inhibition of SLC26A6 (unknown origin) transfected in rat FRT cells by YFP fluorescence quenching assay
Sequence (Q9BXS9 whole entry): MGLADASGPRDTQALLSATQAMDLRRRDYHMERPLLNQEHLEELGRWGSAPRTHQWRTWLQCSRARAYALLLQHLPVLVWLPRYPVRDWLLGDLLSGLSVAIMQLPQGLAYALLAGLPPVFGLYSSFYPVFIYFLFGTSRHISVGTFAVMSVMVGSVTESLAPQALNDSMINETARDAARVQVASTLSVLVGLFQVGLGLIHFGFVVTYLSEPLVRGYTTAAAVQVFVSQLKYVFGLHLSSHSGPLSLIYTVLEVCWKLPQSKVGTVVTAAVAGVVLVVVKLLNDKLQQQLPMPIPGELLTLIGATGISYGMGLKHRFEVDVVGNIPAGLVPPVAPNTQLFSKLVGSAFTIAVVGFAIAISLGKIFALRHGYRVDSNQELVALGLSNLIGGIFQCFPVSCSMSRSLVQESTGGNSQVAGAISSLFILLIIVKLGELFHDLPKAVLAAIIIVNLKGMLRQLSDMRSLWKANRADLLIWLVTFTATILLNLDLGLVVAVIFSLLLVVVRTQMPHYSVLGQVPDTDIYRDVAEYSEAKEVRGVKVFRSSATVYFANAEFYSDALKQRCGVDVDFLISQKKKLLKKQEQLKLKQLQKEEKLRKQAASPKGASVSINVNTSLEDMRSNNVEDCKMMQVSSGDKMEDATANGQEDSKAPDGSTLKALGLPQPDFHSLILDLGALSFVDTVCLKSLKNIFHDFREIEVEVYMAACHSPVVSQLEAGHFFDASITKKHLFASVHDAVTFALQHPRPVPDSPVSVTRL
Value kind: IC50 (µM)
Numbers only, in µM.

Quick check: IC50 of Cc1oc2ccc(OCc3cc(F)ccc3Cl)cc2c1C(=O)O ?
10

====

biological target: Pendrin (Homo sapiens); experiment: Inhibition of Pendrin (unknown origin)
Value kind: pIC50
Answers are plain numbers, as −log10 of the molar value.

What measured pIC50 goes with Cn1nc(COc2cccc(F)c2)c2c1CCN(C(=O)Nc1ccc(Cl)cc1)C2 ?
4.90

====

biological target: Pendrin (Homo sapiens, UniProt O43511); assay: Inhibition of Pendrin (unknown origin) transfected in rat FRT cells assessed as reduction in Cl-/I- ions exchange by YFP fluorescence quenching assay; type: cell-based
Sequence (O43511 whole entry): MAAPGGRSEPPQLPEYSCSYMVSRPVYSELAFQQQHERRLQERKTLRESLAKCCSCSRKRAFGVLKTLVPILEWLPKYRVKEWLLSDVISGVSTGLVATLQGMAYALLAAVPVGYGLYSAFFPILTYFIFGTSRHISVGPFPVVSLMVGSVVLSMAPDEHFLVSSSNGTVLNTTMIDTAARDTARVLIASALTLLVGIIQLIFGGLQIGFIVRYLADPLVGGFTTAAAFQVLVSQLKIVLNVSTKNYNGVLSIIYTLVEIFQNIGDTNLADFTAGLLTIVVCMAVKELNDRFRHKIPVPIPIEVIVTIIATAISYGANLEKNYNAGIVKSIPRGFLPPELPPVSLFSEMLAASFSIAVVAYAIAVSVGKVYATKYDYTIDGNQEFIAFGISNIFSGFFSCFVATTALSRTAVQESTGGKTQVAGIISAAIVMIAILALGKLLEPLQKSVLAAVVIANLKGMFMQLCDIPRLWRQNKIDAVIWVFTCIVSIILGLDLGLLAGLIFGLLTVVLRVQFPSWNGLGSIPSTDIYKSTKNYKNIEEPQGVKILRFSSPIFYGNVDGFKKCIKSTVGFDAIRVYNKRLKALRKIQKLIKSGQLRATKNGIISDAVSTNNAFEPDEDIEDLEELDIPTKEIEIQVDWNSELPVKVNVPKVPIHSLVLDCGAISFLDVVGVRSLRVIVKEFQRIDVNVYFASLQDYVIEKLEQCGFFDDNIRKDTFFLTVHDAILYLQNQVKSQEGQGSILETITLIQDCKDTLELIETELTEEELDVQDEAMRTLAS
Criterion: IC50 strictly under 3 µM. Met: Satisfied. Not met: Not satisfied.

Before answering, review these 6 worked examples.
# Structure string, Class name
measured = [
    ("Cc1oc2ccc(OCc3cccc(Cl)c3)cc2c1C(=O)O", "Not satisfied"),
    ("Cc1oc2ccc(OCc3cc(F)ccc3Cl)cc2c1C(=O)O", "Satisfied"),
    ("Cc1oc2ccc(OCc3ccccc3)cc2c1C(=O)O", "Not satisfied"),
    ("Cc1oc2ccc(OCc3cccc(Br)c3)cc2c1C(=O)O", "Not satisfied"),
    ("Cc1oc2ccc(OCc3ccc(Br)cc3)cc2c1C(=O)O", "Not satisfied"),
    ("Cc1oc2ccc(OCc3ccc(Cl)cc3)cc2c1C(=O)O", "Not satisfied"),
]

// switching to the query compound
Criterion: IC50 strictly below 3 µM. Is it met by Cc1ccccc1COc1ccc2oc(C)c(C(=O)O)c2c1 ?
Satisfied
